Please respond with reported Bliss excess for every item in the list.
- Tested on: IA-LM (Non-Small Cell Lung Carcinoma)
- Experiment Notes: Bliss excess, mean over the matrix (fraction); higher = more synergy
I only need the number, thanks.

INPUT: Report Bliss excess for Cc1cc2ncnn2cc1Nc1ncc2c(n1)n(C1CCOCC1)c(=O)n2C [AZD7648] + O=C(c1cc(Cc2n[nH]c(=O)c3ccccc23)ccc1F)N1CCN(C(=O)C2CC2)CC1 [Olaparib] (first compound max 10 µM, 7x7, partner max 10 µM) please.
OUTPUT: -0.042

INPUT: Report Bliss excess for COc1nnc2ccc(N3CCC(c4ccc(OCCN5CCN(C)C(=O)[C@H]5C)cc4)CC3)nn12 [AZD5153] + Cc1c2c(nn1C)CSCc1cc(n(C)n1)CSc1cc(c3ccccc3c1)OCCCc1c(C(=O)O)n(C)c3c-2c(Cl)ccc13 [AZD5991] (first compound max 1 µM, 7x7, partner max 1 µM) please.
OUTPUT: -0.0797

====

- System: GAK (Melanoma)
- Experiment Notes: combination Emax (second highest fraction inhibited in the dose matrix, 72 h); higher = more inhibition; extreme values may be limits of the assay
Property Name: combination Emax
I only need the number, thanks.

INPUT: Report combination Emax for CN(CCO)CC[C@H](CSc1ccccc1)Nc1ccc(S(=O)(=O)NC(=O)c2ccc(N3CCC([C@@H](O)c4ccccc4-c4ccc(Cl)cc4)CC3)cc2)cc1S(=O)(=O)C(F)(F)F [AZD4320] + C=CCn1c(=O)c2cnc(Nc3ccc(N4CCN(C)CC4)cc3)nc2n1-c1cccc(C(C)(C)O)n1 [AZD1775] (first compound max 1 µM, partner max 1 µM) please.
OUTPUT: 0.833

INPUT: Report combination Emax for CN(C)CCCOc1ccc(-c2ccc3ncc4c(c3c2)n(C2CCOCC2)c(=O)n4C)cn1 [AZD0156] + CCN(CCO)CCCOc1ccc2c(Nc3cc(CC(=O)Nc4cccc(F)c4)[nH]n3)ncnc2c1 [AZD2811] (first compound max 1 µM, 7x7, partner max 1 µM) please.
OUTPUT: 0.198

====

Please respond with reported combination Emax for every item in the list.
- System: SK-N-SH (Neuroblastoma)
- Experiment Notes: combination Emax (second highest fraction inhibited in the dose matrix, 72 h); higher = more inhibition; extreme values may be limits of the assay
I only need the number, thanks.

INPUT: What is its combination Emax for SK-N-SH (Neuroblastoma)? Entry: Cc1c2c(nn1C)CSCc1cc(n(C)n1)CSc1cc(c3ccccc3c1)OCCCc1c(C(=O)O)n(C)c3c-2c(Cl)ccc13 [AZD5991] + Nc1ccn([C@@H]2O[C@H](CO)[C@@H](O)C2(F)F)c(=O)n1 [Gemcitabine] (first compound max 1 µM, 7x7, partner max 0.3 µM)
OUTPUT: 0.757

INPUT: What is its combination Emax for SK-N-SH (Neuroblastoma)? Entry: COc1cccc(OCCCN)c1-c1cc(Nc2cnc(C#N)cn2)n[nH]1 [Prexasertib] + C[C@@H]1COCCN1C2=NC(=NC(=C2)C3(CC3)[S@](=N)(=O)C)C4=C5C=CNC5=NC=C4 [AZD6738] (first compound max 1 µM, 7x7, partner max 10 µM)
OUTPUT: 0.901

INPUT: What is its combination Emax for SK-N-SH (Neuroblastoma)? Entry: O=C(c1cc(Cc2n[nH]c(=O)c3ccccc23)ccc1F)N1CCN(C(=O)C2CC2)CC1 [Olaparib] + CC1(C)CCC(CN2CCN(c3ccc(C(=O)NS(=O)(=O)c4ccc(NCC5CCOCC5)c([N+](=O)[O-])c4)c(Oc4cnc5[nH]ccc5c4)c3)CC2)=C(c2ccc(Cl)cc2)C1 [Venetoclax] (first compound max 10 µM, 7x7, partner max 1 µM)
OUTPUT: 0.545

====

- Test system: NMC-G1 (Low Grade Glioma)
- Experiment Notes: combination Emax (second highest fraction inhibited in the dose matrix, 72 h); higher = more inhibition; extreme values may be limits of the assay
Please respond with reported combination Emax for every item in the list.
I only need the number, thanks.

INPUT: Report combination Emax for CCN(CCO)CCCOc1ccc2c(Nc3cc(CC(=O)Nc4cccc(F)c4)[nH]n3)ncnc2c1 [AZD2811] + C=CCn1c(=O)c2cnc(Nc3ccc(N4CCN(C)CC4)cc3)nc2n1-c1cccc(C(C)(C)O)n1 [AZD1775] (first compound max 1 µM, partner max 1 µM) please.
OUTPUT: 0.254

INPUT: Report combination Emax for C=CCn1c(=O)c2cnc(Nc3ccc(N4CCN(C)CC4)cc3)nc2n1-c1cccc(C(C)(C)O)n1 [AZD1775] + C[C@@H]1COCCN1C2=NC(=NC(=C2)C3(CC3)[S@](=N)(=O)C)C4=C5C=CNC5=NC=C4 [AZD6738] (first compound max 1 µM, partner max 10 µM) please.
OUTPUT: 0.451

INPUT: Report combination Emax for CN(CCO)CC[C@H](CSc1ccccc1)Nc1ccc(S(=O)(=O)NC(=O)c2ccc(N3CCC([C@@H](O)c4ccccc4-c4ccc(Cl)cc4)CC3)cc2)cc1S(=O)(=O)C(F)(F)F [AZD4320] + CCN(CCO)CCCOc1ccc2c(Nc3cc(CC(=O)Nc4cccc(F)c4)[nH]n3)ncnc2c1 [AZD2811] (first compound max 1 µM, 7x7, partner max 1 µM) please.
OUTPUT: 0.718

====

- Tested on: T84 (Colorectal Carcinoma)
- Experiment Notes: combination Emax (second highest fraction inhibited in the dose matrix, 72 h); higher = more inhibition; extreme values may be limits of the assay
Label Condition met when combination Emax is at or above 0.3; otherwise label Condition not met.

INPUT: combination Emax >= 0.3 for CN(CCO)CC[C@H](CSc1ccccc1)Nc1ccc(S(=O)(=O)NC(=O)c2ccc(N3CCC([C@@H](O)c4ccccc4-c4ccc(Cl)cc4)CC3)cc2)cc1S(=O)(=O)C(F)(F)F [AZD4320] + Cc1cc2ncnn2cc1Nc1ncc2c(n1)n(C1CCOCC1)c(=O)n2C [AZD7648] (first compound max 1 µM, 7x7, partner max 10 µM) ?
OUTPUT: Condition not met

INPUT: combination Emax >= 0.3 for C[C@@H](Oc1cc(-c2cnn(C3CCNCC3)c2)cnc1N)c1c(Cl)ccc(F)c1Cl [Crizotinib] + Cn1cnc2c(F)c(Nc3ccc(Br)cc3Cl)c(C(=O)NOCCO)cc21 [Selumetinib] (first compound max 10 µM, 7x7, partner max 10 µM) ?
OUTPUT: Condition met

INPUT: combination Emax >= 0.3 for C[C@@H](Oc1cc(-c2cnn(C3CCNCC3)c2)cnc1N)c1c(Cl)ccc(F)c1Cl [Crizotinib] + CC1=C(C(=CC=C1)Cl)NC(=O)C2=CN=C(S2)NC3=CC(=NC(=N3)C)N4CCN(CC4)CCO [Dasatinib] (first compound max 10 µM, 7x7, partner max 2 µM) ?
OUTPUT: Condition met

INPUT: combination Emax >= 0.3 for CC1(C)CCC(CN2CCN(c3ccc(C(=O)NS(=O)(=O)c4ccc(NCC5CCOCC5)c([N+](=O)[O-])c4)c(Oc4cnc5[nH]ccc5c4)c3)CC2)=C(c2ccc(Cl)cc2)C1 [Venetoclax] + Cn1cnc2c(F)c(Nc3ccc(Br)cc3Cl)c(C(=O)NOCCO)cc21 [Selumetinib] (first compound max 1 µM, 7x7, partner max 3 µM) ?
OUTPUT: Condition not met

INPUT: combination Emax >= 0.3 for Cn1cnc2c(F)c(Nc3ccc(Br)cc3Cl)c(C(=O)NOCCO)cc21 [Selumetinib] + CCN(CCO)CCCOc1ccc2c(Nc3cc(CC(=O)Nc4cccc(F)c4)[nH]n3)ncnc2c1 [AZD2811] (first compound max 10 µM, 7x7, partner max 1 µM) ?
OUTPUT: Condition met

INPUT: combination Emax >= 0.3 for Cc1c2c(nn1C)CSCc1cc(n(C)n1)CSc1cc(c3ccccc3c1)OCCCc1c(C(=O)O)n(C)c3c-2c(Cl)ccc13 [AZD5991] + C[C@@H]1COCCN1C2=NC(=NC(=C2)C3(CC3)[S@](=N)(=O)C)C4=C5C=CNC5=NC=C4 [AZD6738] (first compound max 1 µM, 7x7, partner max 10 µM) ?
OUTPUT: Condition met

INPUT: combination Emax >= 0.3 for CN(CCO)CC[C@H](CSc1ccccc1)Nc1ccc(S(=O)(=O)NC(=O)c2ccc(N3CCC([C@@H](O)c4ccccc4-c4ccc(Cl)cc4)CC3)cc2)cc1S(=O)(=O)C(F)(F)F [AZD4320] + C1CN(CCC1(C(=O)N[C@@H](CCO)C2=CC=C(C=C2)Cl)N)C3=NC=NC4=C3C=CN4 [Capivasertib] (first compound max 1 µM, 7x7, partner max 3 µM) ?
OUTPUT: Condition not met

INPUT: combination Emax >= 0.3 for CS(=O)(=O)CCNCc1ccc(-c2ccc3ncnc(Nc4ccc(OCc5cccc(F)c5)c(Cl)c4)c3c2)o1 [Lapatinib] + NC1(c2ccc(-c3nc4ccn5c(=O)[nH]nc5c4cc3-c3ccccc3)cc2)CCC1 [MK-2206] (first compound max 10 µM, 7x7, partner max 10 µM) ?
OUTPUT: Condition met

====

- Tested on: MS-1 (Small Cell Lung Carcinoma)
- Experiment Notes: Bliss excess, mean over the matrix (fraction); higher = more synergy
Property Name: Bliss excess
I only need the number, thanks.

INPUT: Report Bliss excess for COc1nnc2ccc(N3CCC(c4ccc(OCCN5CCN(C)C(=O)[C@H]5C)cc4)CC3)nn12 [AZD5153] + Cn1cnc2c(F)c(Nc3ccc(Br)cc3Cl)c(C(=O)NOCCO)cc21 [Selumetinib] (first compound max 1 µM, 7x7, partner max 10 µM) please.
OUTPUT: -0.0665

INPUT: Report Bliss excess for NC1(C(=O)N[C@@H](CCO)c2ccc(Cl)cc2)CCN(c2ncnc3[nH]ccc23)CC1 [Capivasertib] + COc1nnc2ccc(N3CCC(c4ccc(OCCN5CCN(C)C(=O)[C@H]5C)cc4)CC3)nn12 [AZD5153] (first compound max 10 µM, 7x7, partner max 1 µM) please.
OUTPUT: -0.0737

INPUT: Report Bliss excess for CN(CCO)CC[C@H](CSc1ccccc1)Nc1ccc(S(=O)(=O)NC(=O)c2ccc(N3CCC([C@@H](O)c4ccccc4-c4ccc(Cl)cc4)CC3)cc2)cc1S(=O)(=O)C(F)(F)F [AZD4320] + C[C@@H]1COCCN1C2=NC(=NC(=C2)C3(CC3)[S@](=N)(=O)C)C4=C5C=CNC5=NC=C4 [AZD6738] (first compound max 1 µM, 7x7, partner max 10 µM) please.
OUTPUT: -0.0085

Ref: the supplement of paper PMC11061612
